# Test system: ATP;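 also: ATP exposure 15 min at 22 °C before imaging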
# measurement_notes: switch fluorescence ratio, 500 uM ATP over buffer (Cy3 cluster intensity, sum of 5 cycles each) (fold (ratio)); higher = stronger signal-on switching upon ATP binding; sequences stand for … in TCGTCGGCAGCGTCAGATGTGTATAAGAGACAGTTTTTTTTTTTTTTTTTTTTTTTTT…TC
# experimental_parameters: aptamer strand: ATP DNA aptamer (quencher-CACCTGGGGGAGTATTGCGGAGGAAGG + anchor), 100 nM annealed; ATP concentration: 500 uM
result_type: switch fluorescence ratio
Format: numeric value only, no unit, no commentary.

Name the recorded switch fluorescence ratio for `TGAAGACCAT` .
1.02

Recorded switch fluorescence ratio for `ATGTGAGGGT` , please?
1.02

Query: switch fluorescence ratio; subject: `ACTATCGGTT`
1.07

Recorded switch fluorescence ratio of `CCTCATTGGT` , please.
1.03

What value of switch fluorescence ratio has been reported for the following sequence? `CGTACTAGAT`
0.996

Request the reported switch fluorescence ratio associated with `CCGCACGAGT`
3.73

Bench note: what switch fluorescence ratio did `TCAAAGCCCT` show?
1.03

Value lookup for switch fluorescence ratio; key = `GTGCGAACTT`
1.01

What switch fluorescence ratio value was documented for this sequence, `CGGATAGGTT` ?
1.01

What does the record list as switch fluorescence ratio for `TTTAGGGTTT` ?
1.06

Which switch fluorescence ratio value is on record for `AGGCTGCGTT` ?
1.02

Param item = `GTTGCTAGAG` ; retrieve measured switch fluorescence ratio.
1.01

# get_value(readout='switch fluorescence ratio', item= `GTCATTGATT` )
1.01

Can you share its switch fluorescence ratio? I mean this sequence: `AATGGGATTG`
0.972

Requested field: switch fluorescence ratio. Item: `ATATTCTTAG`
1.01

Could you share which switch fluorescence ratio value was measured for `ATTGTGAGGG` ?
0.993

May I ask what switch fluorescence ratio has been recorded for `CCCTATTTGC` ?
1.06

# get_value(readout='switch fluorescence ratio', item= `GGTGGAGAGC` )
0.999

# switch fluorescence ratio lookup, item `CGGCCTCTGC`
1.15

# lookup: switch fluorescence ratio of `GAGCGGGTAC`
1.41

Find the recorded switch fluorescence ratio belonging to `ATTGACCCCT` and report it.
1.08

Could you share which switch fluorescence ratio value was measured for `TTCTTTGGTT` ?
0.989

Given the sequence `ATTCTAGGA` , what is its reported switch fluorescence ratio?
0.985

Look up switch fluorescence ratio for this sequence: `GGGGTTTGAT`
0.996

Entry `GGTTACTTGG` has what switch fluorescence ratio?
0.989

Record request: switch fluorescence ratio value, item `ACCCTTTTAC`
1.13

Data request, read-out switch fluorescence ratio, for `TGGCGGGGAC`
1.1

Tell me the measured switch fluorescence ratio of `TGGTTAGGG` , please.
0.988

Look up switch fluorescence ratio: `GGGCGGTTTT`
0.993

Recorded switch fluorescence ratio of `TGGGGGGCAA` , please.
1.56

Endpoint output: switch fluorescence ratio of `TTTGAACTTC` . Value?
1.27

Query: switch fluorescence ratio; subject: `GAAGTGGGGG`
1.01

Sample `AAGGTGTGCC` — what was its switch fluorescence ratio?
1.01

Give the measured switch fluorescence ratio of `CATGGAAGGG` .
0.97

If you can, please state the reported switch fluorescence ratio value of `CCAGGGGGAA` .
1.09

Looking for the measured switch fluorescence ratio of `CATAATGCGG` , can you help?
1

Consider the sequence `TATGAGTTGC` and give its measured switch fluorescence ratio.
1.03

What value of switch fluorescence ratio has been reported for the following sequence? `CGGGTGGTTA`
1.01

Need switch fluorescence ratio of `TTAGAAGGGA` , thanks.
1.01

What does the record list as switch fluorescence ratio for `CAGATGATAT` ?
0.992

State the recorded switch fluorescence ratio for this entry: `TATGAGGCCA`
1.04

Given `CGTCTAAGTC` , state its recorded switch fluorescence ratio.
1.01

Need switch fluorescence ratio, item `ATTAATGTTG`
1.05

Field request: switch fluorescence ratio | item: `GTTGTGGGGG`
1.01

Which measured switch fluorescence ratio value corresponds to `CATTTTTTGT` ?
1.03

Fill in: switch fluorescence ratio of `TGGGGGTTCC` is ___
1.01

Query: switch fluorescence ratio; subject: `AATAGTAAAT`
0.999

Could you tell me which switch fluorescence ratio is on file for `AGCTAGGAGC` ?
0.972

What value of switch fluorescence ratio has been recorded for this entry: `AATTGGAATA`
0.956

Reported switch fluorescence ratio for `AAGGAAACAC` : what is it?
1.96

// returns reported switch fluorescence ratio for input `CATGAGTTGT`
1

Given `TGGGGGTTGG` , state its recorded switch fluorescence ratio.
1

Any idea what its switch fluorescence ratio is? The sequence is `TGGCCTAACT`
1.02

# switch fluorescence ratio lookup, item `TAAGCGCCAT`
1.03

Entry under review: `TAAAGGGTG` . Reported switch fluorescence ratio?
1.08

Reported switch fluorescence ratio for `CAAATTCGAG` : what is it?
0.984

Value lookup for switch fluorescence ratio; key = `TTAAGTGGTG`
1.01

What measured switch fluorescence ratio goes with `TTTTCGGGTT` ?
1

Please report the recorded switch fluorescence ratio for `TCGTGCAGTT` .
1.01

Dear colleague, I am looking for the recorded switch fluorescence ratio of the following sequence: `TGAATGTAGC`
0.978

Could you share which switch fluorescence ratio value was measured for `TTTTAGTT` ?
0.993

What does the record list as switch fluorescence ratio for `TGAGCTGGTA` ?
0.981

I would be grateful if you could share the reported switch fluorescence ratio for `AGTTGGGGCG` .
1.01

Suppose we examine the sequence `GTTAAAATTT` ; what switch fluorescence ratio value has been reported?
1

I have this sequence here, `ACGCCTGGGC` , and I need its recorded switch fluorescence ratio.
1.02

Entry under review: `AATTAATTCC` . Reported switch fluorescence ratio?
1.07

Fill in the blank: the reported switch fluorescence ratio of `ACAAAGTGTG` is ____.
1.03

Item `TTTTATTCGG` has what recorded switch fluorescence ratio?
0.961

Which value of switch fluorescence ratio has been reported for `GTTTTTGTTA` in the records?
0.991

What does the record list as switch fluorescence ratio for `ACAGGCGGCT` ?
1.1

May I ask what switch fluorescence ratio has been recorded for `CAATTTCCCG` ?
1.01

---

# Test system: ATP;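 also: ATP exposure 15 min at 22 °C before imaging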
# measurement_notes: switch fluorescence ratio, 500 uM ATP over buffer (Cy3 cluster intensity, sum of 5 cycles each) (fold (ratio)); higher = stronger signal-on switching upon ATP binding; sequences stand for … in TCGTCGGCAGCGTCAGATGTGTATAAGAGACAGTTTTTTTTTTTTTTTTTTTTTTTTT…TC
# experimental_parameters: aptamer strand: ATP DNA aptamer (quencher-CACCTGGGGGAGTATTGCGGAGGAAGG + anchor), 100 nM annealed; ATP concentration: 500 uM
result_type: switch fluorescence ratio
Answer with a number only.

Look up switch fluorescence ratio for this sequence: `GGGCGGTCTT`
1.06

I have this sequence here, `GCAGTCTGGT` , and I need its recorded switch fluorescence ratio.
0.981

Dear colleague, I am looking for the recorded switch fluorescence ratio of the following sequence: `AATCATGGAG`
0.989

// switch fluorescence ratio lookup, key: `CCTCGCGGGG`
1.08

Using the record for `AGCAGGGAGC` , report its switch fluorescence ratio.
1.01

Please look up its switch fluorescence ratio: `TGGGGGTTAA`
0.981

Dear colleague, I am looking for the recorded switch fluorescence ratio of the following sequence: `TTGAGTGAAA`
0.999

Bench note: what switch fluorescence ratio did `AGGGGCGGTG` show?
0.994

Quick one: switch fluorescence ratio of `TGGTGTTGTC` ?
1.03

Look at this sequence and give its reported switch fluorescence ratio. `TGAAGCATTG`
1.35

Reported switch fluorescence ratio, sequence `GGATTGGATG` : ____
0.983

I am curious: what switch fluorescence ratio value has been reported for `GAACGAAGTT` ?
1

Which switch fluorescence ratio is listed for `TCAAGTGTTT` ?
0.993

---

# System: ATP;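 also: ATP exposure 15 min at 22 °C before imaging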
# measurement_notes: switch fluorescence ratio, 500 uM ATP over buffer (Cy3 cluster intensity, sum of 5 cycles each) (fold (ratio)); higher = stronger signal-on switching upon ATP binding; sequences stand for … in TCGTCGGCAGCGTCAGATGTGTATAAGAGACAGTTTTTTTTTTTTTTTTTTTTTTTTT…TC
# experimental_parameters: aptamer strand: ATP DNA aptamer (quencher-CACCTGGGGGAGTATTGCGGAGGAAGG + anchor), 100 nM annealed; ATP concentration: 500 uM
result_type: switch fluorescence ratio
Please give only the number in your answer, with no unit.

Please give the measured switch fluorescence ratio for this sequence: `CGGACATTCA`
1.04

Which switch fluorescence ratio is reported for this sequence? `TTCCATGGCC`
1.04

If you can, please state the reported switch fluorescence ratio value of `AGGTTATGCA` .
1.01

Return reported switch fluorescence ratio; argument: `GGATGTTATT`
0.992

Which switch fluorescence ratio value is on record for `CGGAAATGGG` ?
1.02

Endpoint output: switch fluorescence ratio of `ATTTTAATGA` . Value?
0.934

Could you tell me which switch fluorescence ratio is on file for `ATTGATTCAA` ?
0.996

Fill in: switch fluorescence ratio of `AGTTATTTCG` is ___
0.993

Can you share its switch fluorescence ratio? I mean this sequence: `GCCGCGTGCG`
1.06

Returns the measured switch fluorescence ratio for the input sequence. Input: `TATTTTAGGG`
0.985

Please give the measured switch fluorescence ratio for this sequence: `TGTTGCTTAA`
0.993

Could you tell me which switch fluorescence ratio is on file for `TATGTGGCAC` ?
1.08

Name the recorded switch fluorescence ratio for `AGTATGGTAG` .
1.01

Please look up its switch fluorescence ratio: `ATAGGCATCA`
1.18

Given the sequence `AGAACAGCAT` , what is its reported switch fluorescence ratio?
1.01

Data request, read-out switch fluorescence ratio, for `CAAAGGTACA`
1.01

Sample `CGTATAGGGA` — what was its switch fluorescence ratio?
1.02

Fill in: switch fluorescence ratio of `ATTTACATTA` is ___
1.03

Please report the recorded switch fluorescence ratio for `AACGTGGGTA` .
1.01

Data request, read-out switch fluorescence ratio, for `CGCGGTGGGA`
1.02

Endpoint output: switch fluorescence ratio of `ACGGGAAGGC` . Value?
1.09

Form field: reported switch fluorescence ratio of `TTATTGCATG`
0.96

Item under review: `ATAGTAGTGT` . Reported switch fluorescence ratio?
0.998

# query: switch fluorescence ratio of entry `TAATCCCTTT`
1.01

Item `TTAAAGAGCT` has what recorded switch fluorescence ratio?
1.01

I'd like to know its switch fluorescence ratio. The sequence in question is `GGGACTTAAC`
1.03

Item under review: `GTGTGTTAAC` . Reported switch fluorescence ratio?
0.974

For the sequence `AGAAGTAAGA` , what switch fluorescence ratio is on record?
0.998

Give its switch fluorescence ratio value. Item: `ATAGAGGAGG`
1

# get_value(readout='switch fluorescence ratio', item= `CGAGTTTGGG` )
1

Entry `TTACTGTGTT` has what switch fluorescence ratio?
1

GET /values?readout=switch fluorescence ratio&item= `TACGGTTTGG`
0.988

Bench note: what switch fluorescence ratio did `GGTTTATGGA` show?
1.03

Look up switch fluorescence ratio for this sequence: `GCGTGCTGTA`
1.01

Need switch fluorescence ratio of `TTCGGATATA` , thanks.
0.991

Which measured switch fluorescence ratio value corresponds to `TAAGAAATGT` ?
1.04

Query (sequence): `AGTAAGTGGG` ; field requested: switch fluorescence ratio
0.956

switch fluorescence ratio lookup needed for `CGGGATTGGT` , thanks.
1.01

Entry `AGGGTTTTCG` has what switch fluorescence ratio?
0.972

Recorded switch fluorescence ratio of `GGGAAAGGAG` , please.
0.989

Reported switch fluorescence ratio for `GGTTTTACTC` : what is it?
1.04

# switch fluorescence ratio lookup, item `AAAAACGGTG`
1.05

Item under review: `TGTTCTATAT` . Reported switch fluorescence ratio?
1.01

Recorded switch fluorescence ratio for `GTCTTATATT` , please?
1.01

Record request: switch fluorescence ratio value, item `TAGGTAGGGA`
0.993

Looking for the measured switch fluorescence ratio of `ATTTTTGGCT` , can you help?
0.995

Entry `GCGGGTATTG` : reported switch fluorescence ratio = ?
0.964

Bench note: what switch fluorescence ratio did `GATATTTTAA` show?
0.992

Name the recorded switch fluorescence ratio for `GACGGAGACC` .
1.11

Look up switch fluorescence ratio for this sequence: `TCTATAATGT`
0.965

Dear colleague, I am looking for the recorded switch fluorescence ratio of the following sequence: `ATGGATTTGC`
1.02

# get_value(readout='switch fluorescence ratio', item= `GTAATTGGGA` )
1.02

Any idea what switch fluorescence ratio was measured for `TATCTGGGCA` ?
1.06

For the sequence `AATACTACAG` , what switch fluorescence ratio is on record?
1.08

Item `TTCCAGGATT` has what recorded switch fluorescence ratio?
1.04

Item `CGGGTGGGAT` has what recorded switch fluorescence ratio?
1.01

If you can, please state the reported switch fluorescence ratio value of `TTTTACTGAG` .
1.04

Tell me the measured switch fluorescence ratio of `GGGGTTTATC` , please.
1.01

Need switch fluorescence ratio, item `TAATGAGTGG`
1.02

# lookup: switch fluorescence ratio of `CGCAGGGGGG`
1.09

Quick one: switch fluorescence ratio of `TGGCCTTCGT` ?
1.13

Which switch fluorescence ratio is listed for `ACATCAGAAG` ?
1.02

Query: switch fluorescence ratio; subject: `GAGGGGGCGG`
0.999

Requested read-out: switch fluorescence ratio. Entry: `CGTTGCATTG`
1.03

Would you kindly share the measured switch fluorescence ratio for `CGGGGAATAG` ?
1.16

Need switch fluorescence ratio, item `ACAAGATTTT`
0.979

Recorded switch fluorescence ratio for `TGTTTTTTTC` , please?
1.06

Entry `GTTTGGATAT` : reported switch fluorescence ratio = ?
0.963

Quick one: switch fluorescence ratio for `AATTTGTATG` ?
0.991
